Taken from patent US20100092481A1.

# measurement.target: T1, hCMV gH, gL, UL128, UL130 and UL131A co-expressed in HEK293T cells (human cytomegalovirus, UniProt P12824 24-743; P16832 31-278; P16837 1-171; P16772 1-214)
# T1 construct: whole, on cells; also called gH + gL + UL128 + UL130 + UL131A; gH/gL/UL128-130 complex
# assay.overview: cell cross-competition, 20x excess; competitor 9I6-biotin
Consider the following binders; for each one, report its Inhibition of binding (%).
Note: unit % is implicit; provide only the numeric part.

## Input I'd like to know its Inhibition of binding (%). The binder in question is 8J16 (antibody, V domains shown, human IgG mAb; also called 8J16-biotin) VH: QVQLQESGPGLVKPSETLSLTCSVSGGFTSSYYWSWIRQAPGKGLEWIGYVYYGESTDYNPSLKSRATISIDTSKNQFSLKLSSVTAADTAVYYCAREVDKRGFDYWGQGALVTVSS VL: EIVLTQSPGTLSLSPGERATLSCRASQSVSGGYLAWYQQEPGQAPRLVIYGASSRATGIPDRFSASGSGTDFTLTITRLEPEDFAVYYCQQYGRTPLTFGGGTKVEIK
## Output 70

## Input Do the same for 9I6 (antibody, V domains shown, human IgG mAb; also called 9I6-biotin; 916) VH: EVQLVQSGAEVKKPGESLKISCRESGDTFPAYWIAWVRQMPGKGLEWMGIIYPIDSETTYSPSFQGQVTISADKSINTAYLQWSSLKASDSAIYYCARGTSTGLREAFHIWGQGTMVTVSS VL: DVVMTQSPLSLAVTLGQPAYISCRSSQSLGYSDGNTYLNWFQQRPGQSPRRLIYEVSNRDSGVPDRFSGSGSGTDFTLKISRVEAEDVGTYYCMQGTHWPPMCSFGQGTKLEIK please
## Output 100

## Input Do the same for 7I13 (antibody, V domains shown, human IgG mAb) VH: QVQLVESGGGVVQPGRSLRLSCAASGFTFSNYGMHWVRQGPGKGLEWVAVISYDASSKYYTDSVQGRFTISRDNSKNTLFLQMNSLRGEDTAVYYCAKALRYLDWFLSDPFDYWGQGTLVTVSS VL: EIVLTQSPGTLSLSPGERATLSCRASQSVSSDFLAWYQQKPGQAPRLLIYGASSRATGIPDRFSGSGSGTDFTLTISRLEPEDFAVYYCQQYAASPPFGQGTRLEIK please
## Output 0

## Input Do the same for 7B13 (antibody, V domains shown, human IgG mAb) VH: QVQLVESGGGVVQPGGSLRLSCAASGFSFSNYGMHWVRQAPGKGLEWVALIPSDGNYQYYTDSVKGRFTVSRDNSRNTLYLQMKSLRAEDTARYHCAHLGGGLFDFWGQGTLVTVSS VL: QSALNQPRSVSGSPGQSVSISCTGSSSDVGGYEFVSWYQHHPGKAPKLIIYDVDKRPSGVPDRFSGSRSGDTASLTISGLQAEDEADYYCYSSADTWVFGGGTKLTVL please
## Output 100

## Input Do the same for 8C15 (antibody, V domains shown, human IgG mAb; also called 8C15-biotin) VH: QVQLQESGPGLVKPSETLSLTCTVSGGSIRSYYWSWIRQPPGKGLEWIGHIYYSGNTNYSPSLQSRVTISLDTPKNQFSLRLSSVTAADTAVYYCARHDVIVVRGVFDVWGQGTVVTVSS VL: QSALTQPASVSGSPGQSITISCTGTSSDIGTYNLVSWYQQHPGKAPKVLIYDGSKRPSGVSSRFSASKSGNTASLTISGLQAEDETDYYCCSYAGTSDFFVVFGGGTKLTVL please
## Output 100

## Input Do the same for 2C12 (antibody, V domains shown, human IgG mAb; also called 2C12-biotin) VH: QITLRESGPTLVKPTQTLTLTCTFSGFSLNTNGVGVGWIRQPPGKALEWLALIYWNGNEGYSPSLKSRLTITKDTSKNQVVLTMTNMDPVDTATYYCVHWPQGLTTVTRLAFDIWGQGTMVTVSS VL: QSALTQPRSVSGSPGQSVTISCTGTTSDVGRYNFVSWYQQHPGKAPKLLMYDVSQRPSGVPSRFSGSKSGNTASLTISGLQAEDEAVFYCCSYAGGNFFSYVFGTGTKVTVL please
## Output 100
